Reported Log Reduction of Staphylococcus aureus (ATCC 6538) at 28 Days (Bacteria) values follow for various molecules
# System: Staphylococcus aureus (ATCC 6538)
# method: Comparison of strength between saccharides, preservative efficacy against bacteria
# Type: cell-based
Note: unit Log is implicit; provide only the numeric part.

>  <molecule>
OC[C@@H](O)[C@@H](O)[C@H](O)[C@H](O)CO

>  <target-under-test>
Staphylococcus aureus (ATCC 6538)

>  <measurement-units>
Log

>  <recorded-value>
2.0

$$$$
>  <molecule>
CO[C@H]1O[C@H](CO)[C@@H](O)[C@H](O)[C@H]1O [Methyl-α-D-gluco-pyranoside]

>  <target-under-test>
Staphylococcus aureus (ATCC 6538)

>  <measurement-units>
Log

>  <recorded-value>
1.2

$$$$
>  <molecule>
O=C[C@H](O)[C@@H](O)[C@@H](O)[C@H](O)CO

>  <target-under-test>
Staphylococcus aureus (ATCC 6538)

>  <measurement-units>
Log

>  <recorded-value>
2.2

$$$$
>  <molecule>
O=C[C@H](O)[C@@H](O)[C@H](O)[C@H](O)CO

>  <target-under-test>
Staphylococcus aureus (ATCC 6538)

>  <measurement-units>
Log

>  <recorded-value>
1.9

$$$$
>  <molecule>
O=C(CO)[C@@H](O[C@H]1O[C@H](CO)[C@@H](O)[C@H](O)[C@H]1O)[C@H](O)[C@H](O)CO

>  <target-under-test>
Staphylococcus aureus (ATCC 6538)

>  <measurement-units>
Log

>  <recorded-value>
1.4

$$$$

Query: Log Reduction of Staphylococcus aureus (ATCC 6538) at 28 Days (Bacteria); subject: OC[C@H]1O[C@H](O[C@H]2O[C@H](CO)[C@@H](O)[C@H](O)[C@H]2O)[C@H](O)[C@@H](O)[C@@H]1O
1.3

Try CO[C@H]1O[C@H](CO)[C@@H](O)[C@H](O)[C@H]1O [Methyl-α-D-gluco-pyranose] next.
1.7
